B1: SPRY1 (parent)
chain: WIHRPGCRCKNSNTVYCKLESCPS

Variants of: B1
test.name: protein stability index of a GFP-peptide fusion (GPS, HEK-293T) (PSI 1-6); higher = more stable;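 further: lentivirally expressed fusions sorted by FACS into six bins by GFP to DsRed ratio, PSI derived from sequencing read proportions per bin multiplied by bin number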
settings: c terminus: a fixed tail appended
param class (str): category from protein stability index; see ranges group A: < 2; group B: ≥ 2 and < 3; group C: ≥ 3

[ask] Record WIHRPGCRCKNSNTVYCILESCPS [K18I] — which class?
[reply] group A

Others:
[ask] Record WIHRPGCRVKNSNTVYCKLESCPS [C9V] — which class?
[reply] group C

[ask] Record WIHRPGCRCKNSNTVYCKCESCPS [L19C] — which class?
[reply] group C

[ask] Record WIMRPGCRCKNSNTVYCKLESCPS [H3M] — which class?
[reply] group B

[ask] Record WIHRPGCRCKHSNTVYCKLESCPS [N11H] — which class?
[reply] group B

[ask] Record WIHRPGCYCKNSNTVYCKLESCPS [R8Y] — which class?
[reply] group B

Values from the supplement of paper PMC10567573
